From: patent US20250170248A1

measurement_target: SMARCA2 (Homo sapiens)
Sequence (P51531 whole entry): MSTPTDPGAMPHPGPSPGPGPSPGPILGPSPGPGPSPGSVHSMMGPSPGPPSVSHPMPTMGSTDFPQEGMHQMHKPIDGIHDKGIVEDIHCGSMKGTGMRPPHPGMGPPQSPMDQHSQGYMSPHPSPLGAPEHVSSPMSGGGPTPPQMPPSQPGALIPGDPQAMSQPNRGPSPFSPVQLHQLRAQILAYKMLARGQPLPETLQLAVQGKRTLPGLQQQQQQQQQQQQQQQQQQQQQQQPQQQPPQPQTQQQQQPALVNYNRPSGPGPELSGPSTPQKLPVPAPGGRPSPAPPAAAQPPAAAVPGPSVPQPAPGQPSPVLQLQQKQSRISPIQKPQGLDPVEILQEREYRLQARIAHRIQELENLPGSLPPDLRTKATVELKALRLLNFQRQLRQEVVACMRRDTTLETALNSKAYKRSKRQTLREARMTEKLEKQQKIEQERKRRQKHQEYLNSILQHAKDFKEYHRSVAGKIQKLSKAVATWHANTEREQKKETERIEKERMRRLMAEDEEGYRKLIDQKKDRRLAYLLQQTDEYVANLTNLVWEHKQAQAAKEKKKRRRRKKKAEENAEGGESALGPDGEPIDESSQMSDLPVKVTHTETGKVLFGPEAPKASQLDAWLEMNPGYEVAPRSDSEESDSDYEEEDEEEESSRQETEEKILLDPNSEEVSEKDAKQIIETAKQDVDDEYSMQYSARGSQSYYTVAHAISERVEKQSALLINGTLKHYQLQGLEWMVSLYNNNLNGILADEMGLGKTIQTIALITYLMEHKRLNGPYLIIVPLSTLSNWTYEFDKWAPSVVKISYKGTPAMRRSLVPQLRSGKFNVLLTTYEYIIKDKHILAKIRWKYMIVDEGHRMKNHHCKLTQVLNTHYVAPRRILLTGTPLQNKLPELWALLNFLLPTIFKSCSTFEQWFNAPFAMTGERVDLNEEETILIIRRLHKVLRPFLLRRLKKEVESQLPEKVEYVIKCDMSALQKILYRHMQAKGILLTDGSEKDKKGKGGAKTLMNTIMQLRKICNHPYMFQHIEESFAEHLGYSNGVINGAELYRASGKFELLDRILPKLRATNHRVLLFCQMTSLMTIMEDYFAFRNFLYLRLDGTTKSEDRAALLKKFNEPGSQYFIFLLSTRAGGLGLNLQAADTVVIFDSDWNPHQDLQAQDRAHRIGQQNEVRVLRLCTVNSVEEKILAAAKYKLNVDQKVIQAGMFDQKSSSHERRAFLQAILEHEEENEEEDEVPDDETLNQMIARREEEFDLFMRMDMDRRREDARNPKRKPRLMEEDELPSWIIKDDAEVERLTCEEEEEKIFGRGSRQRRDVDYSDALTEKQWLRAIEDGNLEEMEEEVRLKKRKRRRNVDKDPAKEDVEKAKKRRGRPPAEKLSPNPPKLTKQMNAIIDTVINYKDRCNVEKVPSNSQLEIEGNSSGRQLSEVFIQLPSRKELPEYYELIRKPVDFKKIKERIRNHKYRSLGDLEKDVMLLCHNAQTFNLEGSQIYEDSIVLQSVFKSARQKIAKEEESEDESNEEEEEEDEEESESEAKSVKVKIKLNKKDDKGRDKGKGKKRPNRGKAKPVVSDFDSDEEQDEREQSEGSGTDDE
assay_overview: SMARCA2 Western blot degradation in MV4-11 cells
Assay type: cell-based
Parameters: SMARCA2/SMARCA4 protein degradation selectivity in MV4-11 cells; endogenous in cells; host or cells: MV4-11
protocol_conditions: MV4-11 cells, 24 h
measured_attribute: SMARCA2 MSD MV411 degradation 24 h: average Dmax %

molecule	result
Cc1cc(Cl)ccc1C#CCNC(=O)[C@@H]1C[C@@H](O)CN1C(=O)[C@@H](NC(=O)[C@H]1CCC2(CC1)C[C@H](N1CCC(c3cnc(N4CCN5c6cc(-c7ccccc7O)nnc6NC[C@H]5C4)nc3)CC1)C2)C(C)(C)C (single isomer, unassigned)	D (D (<50% degradation))
CC(C)(C)[C@H](NC(=O)[C@H]1CCC2(CC1)C[C@H](N1CCC(c3cnc(N4CCN5c6cc(-c7ccccc7O)nnc6NC[C@H]5C4)nc3)CC1)C2)C(=O)N1C[C@H](O)C[C@H]1C(=O)NCC#Cc1ccc(Cl)cc1 (single isomer, unassigned)	D (D (<50% degradation))
Cc1ncsc1-c1ccc(CNC(=O)[C@@H]2C[C@@H](O)CN2C(=O)[C@@H](NC(=O)[C@H]2CC3(C2)C[C@H](N2CCN(c4cnc(N5CCN6c7cc(-c8ccccc8O)nnc7NC[C@H]6C5)nc4)CC2)C3)C(C)(C)C)cc1 (stereo partly drawn) [I-18]	D (D (<50% degradation))
